// data source = ChEMBL document CHEMBL3611993

# Target Or System: Epidermal growth factor receptor (Homo sapiens, UniProt P00533)
# Sequence (P00533 whole entry): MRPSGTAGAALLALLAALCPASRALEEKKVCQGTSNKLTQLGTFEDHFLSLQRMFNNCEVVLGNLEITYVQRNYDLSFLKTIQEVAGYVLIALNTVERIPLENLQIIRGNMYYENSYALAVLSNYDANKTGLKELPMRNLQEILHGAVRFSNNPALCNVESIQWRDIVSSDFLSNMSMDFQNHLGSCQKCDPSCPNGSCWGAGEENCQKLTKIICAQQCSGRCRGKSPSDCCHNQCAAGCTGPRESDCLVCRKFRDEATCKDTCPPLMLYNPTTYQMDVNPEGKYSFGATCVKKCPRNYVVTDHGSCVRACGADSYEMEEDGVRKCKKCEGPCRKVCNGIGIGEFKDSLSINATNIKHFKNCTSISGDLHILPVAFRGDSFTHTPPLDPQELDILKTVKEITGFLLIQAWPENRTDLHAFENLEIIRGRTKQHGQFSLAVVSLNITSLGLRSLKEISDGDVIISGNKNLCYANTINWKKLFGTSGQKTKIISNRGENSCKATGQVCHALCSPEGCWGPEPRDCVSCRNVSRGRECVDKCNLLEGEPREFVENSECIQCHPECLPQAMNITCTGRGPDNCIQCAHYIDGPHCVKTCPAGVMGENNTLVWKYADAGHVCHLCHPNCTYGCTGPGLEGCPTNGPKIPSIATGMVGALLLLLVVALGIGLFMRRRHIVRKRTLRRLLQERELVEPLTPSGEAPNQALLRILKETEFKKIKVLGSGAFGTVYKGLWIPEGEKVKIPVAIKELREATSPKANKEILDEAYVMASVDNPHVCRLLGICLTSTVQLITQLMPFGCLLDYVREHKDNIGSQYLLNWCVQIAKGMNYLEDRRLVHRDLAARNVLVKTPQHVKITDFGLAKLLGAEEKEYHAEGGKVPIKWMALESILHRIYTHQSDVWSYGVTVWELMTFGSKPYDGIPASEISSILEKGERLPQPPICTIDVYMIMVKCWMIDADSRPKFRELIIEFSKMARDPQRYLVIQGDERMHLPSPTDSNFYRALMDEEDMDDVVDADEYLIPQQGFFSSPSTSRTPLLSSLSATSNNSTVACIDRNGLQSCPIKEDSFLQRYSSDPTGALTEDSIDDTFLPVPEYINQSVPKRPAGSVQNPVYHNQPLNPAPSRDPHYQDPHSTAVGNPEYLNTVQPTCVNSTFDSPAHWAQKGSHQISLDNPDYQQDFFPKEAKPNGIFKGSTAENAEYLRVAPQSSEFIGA
Experimental Readout: IC50

[[record]]
smiles_data = "COCCn1c(=O)oc2cc3ncnc(Nc4ccc(Cl)cc4)c3cc21"
experimental_result = "> 10 µM"


The record that follows has no IC50 shown yet.
Value (IC50, Epidermal growth factor receptor (Homo sapiens, UniProt P00533)) for record `COCCn1c(=O)oc2cc3ncnc(Nc4ccc(C(C)(C)C)cc4)c3cc21` = > 10 µM
